For each of the compounds below, state its Bliss excess.
system: SH-4 (Melanoma); experiment: Bliss excess, mean over the matrix (fraction); higher = more synergy;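 further: after 72 h of two-drug dosing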
Numbers only.

Sample answers from the record:
COMPOUND	Bliss excess
O=C(c1cc(Cc2n[nH]c(=O)c3ccccc23)ccc1F)N1CCN(C(=O)C2CC2)CC1 [Olaparib] + CN(CC[C@H](CSC1=CC=CC=C1)NC2=C(C=C(C=C2)S(=O)(=O)NC(=O)C3=CC=C(C=C3)N4CCC(CC4)[C@H](C5=CC=CC=C5C6=CC=C(C=C6)Cl)O)S(=O)(=O)C(F)(F)F)CCO [AZD4320] (first compound max 10 µM, 7x7, partner max 1 µM)	-0.0505
Cc1c2c(nn1C)CSCc1cc(n(C)n1)CSc1cc(c3ccccc3c1)OCCCc1c(C(=O)O)n(C)c3c-2c(Cl)ccc13 [AZD5991] + C1CN(CCC1(C(=O)N[C@@H](CCO)C2=CC=C(C=C2)Cl)N)C3=NC=NC4=C3C=CN4 [Capivasertib] (first compound max 1 µM, 7x7, partner max 3 µM)	-0.0029
COc1cccc(OCCCN)c1-c1cc(Nc2cnc(C#N)cn2)n[nH]1 [Prexasertib] + O=C(c1cc(Cc2n[nH]c(=O)c3ccccc23)ccc1F)N1CCN(C(=O)C2CC2)CC1 [Olaparib] (first compound max 1 µM, 7x7, partner max 10 µM)	-0.099

Could you now look at the following compound, please?
Sample CC(=O)c1c(C)c2cnc(Nc3ccc(N4CCNCC4)cn3)nc2n(C2CCCC2)c1=O [Palbociclib] + Cn1cnc2c(F)c(Nc3ccc(Br)cc3Cl)c(C(=O)NOCCO)cc21 [Selumetinib] (first compound max 10 µM, 7x7, partner max 10 µM) — what was its Bliss excess?
0.0333

---

For each of the compounds below, state its combination Emax.
system: SW626 (Colorectal Carcinoma); assay: combination Emax (second highest fraction inhibited in the dose matrix, 72 h); higher = more inhibition; extreme values may be limits of the assay

COMPOUND	combination Emax
Cn1cnc2c(F)c(Nc3ccc(Br)cc3Cl)c(C(=O)NOCCO)cc21 [Selumetinib] + C=CCn1c(=O)c2cnc(Nc3ccc(N4CCN(C)CC4)cc3)nc2n1-c1cccc(C(C)(C)O)n1 [AZD1775] (first compound max 10 µM, partner max 1 µM)	0.724

Hey, quick one: what's combination Emax for each of these?
1. COc1nnc2ccc(N3CCC(c4ccc(OCCN5CCN(C)C(=O)[C@H]5C)cc4)CC3)nn12 [AZD5153] + C=CCn1c(=O)c2cnc(Nc3ccc(N4CCN(C)CC4)cc3)nc2n1-c1cccc(C(C)(C)O)n1 [AZD1775] (first compound max 1 µM, partner max 1 µM)
2. CN(CCO)CC[C@H](CSc1ccccc1)Nc1ccc(S(=O)(=O)NC(=O)c2ccc(N3CCC([C@@H](O)c4ccccc4-c4ccc(Cl)cc4)CC3)cc2)cc1S(=O)(=O)C(F)(F)F [AZD4320] + Cc1cc2ncnn2cc1Nc1ncc2c(n1)n(C1CCOCC1)c(=O)n2C [AZD7648] (first compound max 1 µM, 7x7, partner max 10 µM)

0.75
0.577

---

tested on: KARPAS-231 (B-Cell Non-Hodgkin's Lymphoma); test: combination Emax (second highest fraction inhibited in the dose matrix, 72 h); higher = more inhibition; extreme values may be limits of the assay
Threshold rule: combination Emax greater than or equal to 0.8 is Condition met; below that, Condition not met.

MOLECULE	DISCRETE_LABEL
COc1nnc2ccc(N3CCC(c4ccc(OCCN5CCN(C)C(=O)[C@H]5C)cc4)CC3)nn12 [AZD5153] + Cn1cnc2c(F)c(Nc3ccc(Br)cc3Cl)c(C(=O)NOCCO)cc21 [Selumetinib] (first compound max 1 µM, 7x7, partner max 10 µM)	Condition not met
Cc1cc2ncnn2cc1Nc1ncc2c(n1)n(C1CCOCC1)c(=O)n2C [AZD7648] + CN(C)CCCOc1ccc(-c2ccc3ncc4c(c3c2)n(C2CCOCC2)c(=O)n4C)cn1 [AZD0156] (first compound max 10 µM, 7x7, partner max 1 µM)	Condition not met
COc1cc2ncnc(Nc3ccc(F)c(Cl)c3)c2cc1OCCCN1CCOCC1 [Gefitinib] + CC(C)n1c(=O)n(C)c2cnc3cc(F)c(-c4ccc(OCCCN5CCCCC5)nc4)cc3c21 [AZD1390] (first compound max 10 µM, 7x7, partner max 0.3 µM)	Condition not met
CN(CCO)CC[C@H](CSc1ccccc1)Nc1ccc(S(=O)(=O)NC(=O)c2ccc(N3CCC([C@@H](O)c4ccccc4-c4ccc(Cl)cc4)CC3)cc2)cc1S(=O)(=O)C(F)(F)F [AZD4320] + CN(C)CCCOc1ccc(-c2ccc3ncc4c(c3c2)n(C2CCOCC2)c(=O)n4C)cn1 [AZD0156] (first compound max 1 µM, 7x7, partner max 1 µM)	Condition met
C=CCn1c(=O)c2cnc(Nc3ccc(N4CCN(C)CC4)cc3)nc2n1-c1cccc(C(C)(C)O)n1 [AZD1775] + O=C(c1cc(Cc2n[nH]c(=O)c3ccccc23)ccc1F)N1CCN(C(=O)C2CC2)CC1 [Olaparib] (first compound max 1 µM, partner max 10 µM)	Condition met
Cc1c2c(nn1C)CSCc1cc(n(C)n1)CSc1cc(c3ccccc3c1)OCCCc1c(C(=O)O)n(C)c3c-2c(Cl)ccc13 [AZD5991] + Cn1cnc2c(F)c(Nc3ccc(Br)cc3Cl)c(C(=O)NOCCO)cc21 [Selumetinib] (first compound max 1 µM, 7x7, partner max 3 µM)	Condition met

Answer whether combination Emax of CCN(CCO)CCCOc1ccc2c(Nc3cc(CC(=O)Nc4cccc(F)c4)[nH]n3)ncnc2c1 [AZD2811] + C[C@@H]1COCCN1C2=NC(=NC(=C2)C3(CC3)[S@](=N)(=O)C)C4=C5C=CNC5=NC=C4 [AZD6738] (first compound max 1 µM, 7x7, partner max 10 µM) is greater than or equal to 0.8.
Condition met
